Test: NCI Yeast Anticancer Drug Screen. Data for the cln2 rad14 strain (AID 165);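 note: 0% = growth equal to vehicle treated cultures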
Conditions: S. cerevisiae cln2 rad14 strain, at 50.0 µM, stronger effect = higher value
The panel holds about 79,000 compounds, 15% with a hit somewhere; the sample as a whole holds those more often. Active and inactive are the calls of the source. Cut-off read from the data, not from the text of the source: active = growth inhibition above about 70%; inactive = the rest.
Readout name: growth inhibition

Compound: CCC(NC(C)c1ccccc1)C(=O)c1ccc(OCc2ccccc2)c(OCc2ccccc2)c1 (stereo not given)
growth inhibition: 0.35% (inactive)

Compound: OCCN(CCO)c1ccc2c(c1)Cc1ccccc1-2
growth inhibition: -2.7% (inactive)

Field: next compound
Ask: Identify the reported growth inhibition for the following entry. `COc1ccc2c(c1)[nH]c1c(/C=C/c3ccccc3)nccc12`
Reply: 70.7% (active)

###

Test: NCI Yeast Anticancer Drug Screen. Data for the rad50EPP+ strain (AID 151);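 note: 0% = growth of vehicle-treated control cultures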
Settings: S. cerevisiae rad50 mutant strain, at 1.2 µM, stronger effect = higher value
The panel holds about 79,000 compounds, 15% with a hit somewhere; the sample as a whole holds those more often.
Readout name: growth inhibition (%)
The reply should be a number in %, with the unit left off.

Molecule smiles: COC(=O)c1ccc2c(c1)Cc1ccccc1-2
growth inhibition / %: 2
--
Molecule smiles: CN(NC(=O)/C(=C/c1ccc(O)cc1)NC(=O)c1ccccc1)c1ccnc2cc(Cl)ccc12
growth inhibition / %: -2
--
Molecule smiles: CC(=O)[O-].O=C([CH-]C(=O)c1ccccc1)c1ccccc1.O=C([CH-]C(=O)c1ccccc1)c1ccccc1.[Sm+3]
growth inhibition / %: 35
--
Molecule smiles: CCCCCC#CCOC(=O)C(=[N+]=[N-])P(=O)(c1ccccc1)c1ccccc1
growth inhibition / %: 21

Ask: Return growth inhibition for the following compound: `Cc1cc(OCc2ccccc2)ccc1[N+](=O)[O-]`
Reply: -2

Ask: Complete the entry with growth inhibition for `COc1ccc(SCc2cc(OC)ccc2OC)cc1`
Reply: 15

###

Assay: NCI Yeast Anticancer Drug Screen. Data for the mec2-1 strain (AID 157)
Conditions: S. cerevisiae mec2-1 strain, at 33.0 µM
About 79,000 compounds went through this panel and 15% of them were active in at least one assay; those are over-represented in the sample as a whole. Activity calls are given as the source filed them. Cut-off read from the data, not from the text of the source: active = growth inhibition above about 70%; inactive = the rest.
// classify into true for active, false for inactive

Look over these answered cases.
Compound: CCC(NC(C)c1ccccc1)C(=O)c1ccc(OCc2ccccc2)c(OCc2ccccc2)c1 (stereo unspecified)
Qualitative label: false

Compound: CN(C)c1ccc(N=Nc2ccccn2)cc1
Qualitative label: false

Compound: Cc1c(-c2ccccc2)[nH]c2ccccc12
Qualitative label: true

Compound: O=C1C=CC(=O)N1c1ccc(I)cc1
Qualitative label: true

Compound: COc1ccc(N)c2c1C(=O)c1ccccc1C2=O
Qualitative label: false

Then there is this compound:
Ask: How was `O=C(Nc1cccc(C(F)(F)F)c1)Oc1ccc(Cl)cc1C(=O)c1ccccc1` classified in this test?
Reply: true

###

Assay: NCI Yeast Anticancer Drug Screen. Data for the cln2 rad14 strain (AID 165);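 note: 0% = growth equal to vehicle treated cultures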
Settings: S. cerevisiae cln2 rad14 strain, at 50.0 µM (retest, dose inferred, filed as 5.0), stronger effect = higher value
Protocol: Growth inhibition of yeast strains with defined genetic alterations is measured as a screen for potential anti-cancer activity. Selected strains with alterations in DNA damage repair or cell cycle control were exposed to compounds and growth inhibition was measured relative to vehicle treated controls. The strain used in this assay is cln2 rad14
Compounds without any hit were thinned out: in the full panel of roughly 79,000, 15% have a hit.
Catalogue of compounds with associated growth inhibition
Kindly answer with a numeric value in %, unit omitted.

Example cases with answers are listed next.
Compound: CC1=CCC(C(C)(C)c2ccc(O)cc2)CC1 (stereo not given)
Result unit: %
growth inhibition: 98
--
Compound: CCN1/C(=C/c2ccc3ccccc3[n+]2CC)C=Cc2ccccc21
Result unit: %
growth inhibition: 100
--
Compound: O=C1C=CC(=Nc2ccccc2)c2ccccc21
Result unit: %
growth inhibition: 32
--
Compound: CCCCCC(=O)c1ccc(O)cc1O
Result unit: %
growth inhibition: 90
--
Compound: O=C1C=CC(=O)N1c1ccc(I)cc1
Result unit: %
growth inhibition: 100
--
Compound: Cc1ccc(S(=O)(=O)N/N=C/C2(c3ccccc3)c3ccccc3-c3ccccc32)cc1
Result unit: %
growth inhibition: 90
--
Compound: CN(C)Cc1cccc(CN(C)C)[c]1[Sn]([Br])([c]1ccccc1)[c]1ccccc1
Result unit: %
growth inhibition: 66
--
Compound: Clc1cc(-c2ccccc2)nc2ccccc12
Result unit: %
growth inhibition: 82
--
Compound: Nc1nc2c(c(=O)[nH]1)NC(CCNc1ccc(C(=O)O)cc1)CN2 (stereo not given)
Result unit: %
growth inhibition: 39
--
Compound: OB(O)c1ccccc1C#Cc1ccccc1B(O)O
Result unit: %
growth inhibition: 39

# input for lookup
Ask: Entry `Cc1cc(N=C2C=CC(=[N+](C)C)C=C2)c(N)cc1N` needs its growth inhibition filled in; supply it.
Reply: 57
